Molecular target: human muscarinic M4 receptor (Homo sapiens, UniProt P08173)
Construct: expressed in transfected cells
Sequence (P08173 1-479): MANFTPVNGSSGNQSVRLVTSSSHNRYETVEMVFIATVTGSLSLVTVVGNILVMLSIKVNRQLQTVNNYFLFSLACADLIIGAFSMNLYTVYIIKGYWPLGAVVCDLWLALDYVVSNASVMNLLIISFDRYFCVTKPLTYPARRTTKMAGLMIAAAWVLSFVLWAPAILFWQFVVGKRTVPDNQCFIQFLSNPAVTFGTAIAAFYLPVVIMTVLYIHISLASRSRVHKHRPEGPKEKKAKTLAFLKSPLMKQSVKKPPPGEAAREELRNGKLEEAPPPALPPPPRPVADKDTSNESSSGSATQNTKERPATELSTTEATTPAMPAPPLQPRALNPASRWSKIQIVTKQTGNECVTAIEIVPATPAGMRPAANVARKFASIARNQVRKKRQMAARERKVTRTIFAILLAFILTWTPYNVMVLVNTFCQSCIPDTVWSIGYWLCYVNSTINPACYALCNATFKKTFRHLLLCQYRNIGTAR
Assay: Alphascreen Surefire phospho-ERK1/2 functional assay, M4
Type: cell-based
Settings: CHO cells stably expressing human M4; phospho-ERK1/2; * = variable results; read-out: pEC50 M4 (converted)
property: EC50 (nM)
The answer is to be given in nM; state only the numeric part.

• CCOC(=O)N1CCC2(CC(N3CCC(C4CCCN4C=O)CC3)C2)C1 (single isomer, unassigned) [2-2 Isomer 2] = 63.1
• CCOC(=O)N1CCC2(CC(N3CCC(C4CCCCN4C(=O)NC)CC3)C2)C1 (single isomer, unassigned) [4-20 Isomer 2] = 158
• COC(=O)N1CCC2(CC(N3CCC(c4ccnn4C)CC3)C2)C1 (mixture of isomers) [1-20 Mixture of diastereomers] = 1000
• CCOC(=O)N1CCC2(CC(N3CCC(N4CCC[C@]4(C)C(=O)OC)CC3)C2)C1 (single isomer, unassigned) [2-95 Isomer 2] = 63.1
• CCOC(=O)N1CCC2(CC(N3CCC(c4cccc(OC)n4)CC3)C2)C1 (single isomer, unassigned) [3-13 Isomer 2] = 12.6

Please tell me: EC50 of CCOC(=O)N1CCC2(CC(N3CCC(c4nc(C#N)c[nH]4)CC3)C2)C1 (single isomer, unassigned) [1-4 Isomer 2] , system human muscarinic M4 receptor (Homo sapiens, UniProt P08173)?
251

---

Target: human muscarinic M4 receptor (Homo sapiens)
Construct: expressed in transfected cells
Sequence (P08173 1-479): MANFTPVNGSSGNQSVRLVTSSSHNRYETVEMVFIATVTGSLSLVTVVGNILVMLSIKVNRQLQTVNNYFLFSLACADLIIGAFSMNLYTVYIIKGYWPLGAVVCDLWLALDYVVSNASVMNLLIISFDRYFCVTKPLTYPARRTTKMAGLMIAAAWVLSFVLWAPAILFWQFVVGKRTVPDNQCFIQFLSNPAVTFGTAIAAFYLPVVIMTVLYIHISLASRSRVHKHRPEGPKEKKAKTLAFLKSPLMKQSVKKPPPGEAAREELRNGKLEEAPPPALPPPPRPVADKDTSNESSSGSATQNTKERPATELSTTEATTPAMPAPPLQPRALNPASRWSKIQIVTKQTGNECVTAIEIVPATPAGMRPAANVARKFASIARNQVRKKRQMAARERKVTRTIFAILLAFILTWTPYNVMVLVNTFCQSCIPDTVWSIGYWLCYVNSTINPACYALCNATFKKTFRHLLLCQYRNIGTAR
Assay: Alphascreen Surefire phospho-ERK1/2 functional assay, M4
Format: cell-based
Conditions: CHO cells stably expressing human M4; relative to ACh
Form field: % Emax cf. ACh, M4 (one value per entry).
Please give the number followed by its unit.

What does the data say about its % Emax cf. ACh, M4? Entry: CCOC(=O)N1CCC2(CC(N3CCC([C@@H]4CCCN4C(=O)NCc4ccccn4)CC3)C2)C1 (single isomer, unassigned) [2-54 Isomer 2]
134%

What does the data say about its % Emax cf. ACh, M4? Entry: CCOC(=O)N1CCC2(CC(N3CCC([C@@H]4CCCN4C(=O)N(C)CC(F)(F)F)CC3)C2)C1 (single isomer, unassigned) [2-55 Isomer 2]
52%

What does the data say about its % Emax cf. ACh, M4? Entry: CCOC(=O)N1CCC2(CC(N3CCC([C@@H]4CCCN4C(=O)N4Cc5cccnc5C4)CC3)C2)C1 (single isomer, unassigned) [2-133 Isomer 2]
118%

What does the data say about its % Emax cf. ACh, M4? Entry: CCOC(=O)N1CCC2(CC(N3CCC(N4CCCC4c4nnnn4C)CC3)C2)C1 (single isomer, unassigned) [2-130 Isomer 2]
66%

What does the data say about its % Emax cf. ACh, M4? Entry: CCOC(=O)N1CCC2(CC(N3CCC(C#N)(c4ccccn4)CC3)C2)C1 (single isomer, unassigned; isomer 2) [3-10 Isomer 2]
103%

What does the data say about its % Emax cf. ACh, M4? Entry: CCOC(=O)N1CCC2(CC(N3CCC([C@@H]4CCCN4C(=O)N(C)OC)CC3)C2)C1 (single isomer, unassigned) [2-34 Isomer 2]
58%

What does the data say about its % Emax cf. ACh, M4? Entry: CCOC(=O)N1CCC2(CC(N3CCC(N4CC(F)(F)C[C@@H]4C(C)O)CC3)C2)C1 (single isomer, unassigned) [2-109 Isomer 4]
82%

What does the data say about its % Emax cf. ACh, M4? Entry: CCOC(=O)N1CCC2(CC(N3CCC([C@@H]4CCCN4CCC(F)(F)F)CC3)C2)C1 (single isomer, unassigned) [2-70 Isomer 2]
111%

What does the data say about its % Emax cf. ACh, M4? Entry: CCOC(=O)N1CCC2(CC(N3CCC(N4CCCC4c4nnnn4C)CC3)C2)C1 (single isomer, unassigned) [2-130 Isomer 1]
20%

What does the data say about its % Emax cf. ACh, M4? Entry: CCOC(=O)N1CCC2(CC(N3CCC(c4c(C)cc[nH]c4=O)CC3)C2)C1 (single isomer, unassigned) [3-14 Isomer 2]
75%

What does the data say about its % Emax cf. ACh, M4? Entry: CCOC(=O)N1CCC2(CC(N3CCC([C@@H]4CCCN4C(=O)N(C)OC)CC3)C2)C1 (single isomer, unassigned) [2-34 Isomer 1]
89%

What does the data say about its % Emax cf. ACh, M4? Entry: CCOC(=O)N1CCC2(CC(N3CCC(C4CCCNC4=O)CC3)C2)C1 (single isomer, unassigned) [4-1 Isomer 4]
68%
